# target_of_assay: Human M4 (Homo sapiens)
# Construct: Human or rat M4 cDNA, along with the chimeric G protein Gqi5, were transfected into Chinese hamster ovary (CHO-K1) cells
# experiment_description: mAChR M4 cell-based functional assay (calcium flux, decrease of EC80 acetylcholine response)
# experimental_parameters: M4/Gqi5/CHO-K1 cells; decrease of response to EC80 acetylcholine
pIC50: −log10 of the molar value.

smiles_text: Cn1cc2cc(-c3cnc(N[C@H]4C[C@@H]5CN(Cc6ccc7c(c6)OCO7)C[C@@H]5C4)nc3)ccc2n1
pIC50: 5.28
--
smiles_text: Cn1cc2cc(-c3cnc(N[C@H]4C[C@@H]5CN(CC6CCOCC6)C[C@@H]5C4)nc3)ccc2n1
pIC50: 5.56
--
smiles_text: Cc1ccc(F)cc1-c1cc(C#N)c(N[C@H]2C[C@@H]3CN(C[C@@H]4CCOC4)C[C@@H]3C2)nn1
pIC50: 6.98
--
smiles_text: Cn1ccc2ccc(-c3cc(C(F)(F)F)c(N[C@H]4C[C@@H]5CN(CC6CCOCC6)C[C@@H]5C4)nn3)cc21
pIC50: 6.20
--
smiles_text: Cc1ccc(F)cc1-c1cc(C#N)c(N[C@H]2C[C@@H]3CN(C[C@H]4COCCO4)C[C@@H]3C2)nn1
pIC50: 9.40
--
smiles_text: Cn1cc2cc(-c3cc(C(F)(F)F)c(N[C@H]4C[C@@H]5CN(C[C@H]6COCCO6)C[C@@H]5C4)nn3)ccc2n1
pIC50: 7.48

* * *

# target_of_assay: Human M4 (Homo sapiens)
# Construct: Human or rat M4 cDNA, along with the chimeric G protein Gqi5, were transfected into Chinese hamster ovary (CHO-K1) cells
# experiment_description: mAChR M4 cell-based functional assay (calcium flux, decrease of EC80 acetylcholine response)
# experimental_parameters: M4/Gqi5/CHO-K1 cells; decrease of response to EC80 acetylcholine
pIC50: −log10 of the molar value.
Reported pIC50 values for the following compounds.

compound: Cn1cc2cc(-c3cc(C(F)(F)F)c(N[C@H]4C[C@@H]5CN(C[C@@H]6CC7CCC6O7)C[C@@H]5C4)nn3)ccc2n1 (stereo partly drawn)
pIC50: 7.71
//
compound: Cc1cc(-c2cc(C(F)(F)F)c(N[C@H]3C[C@@H]4CN(CC5CCOCC5)C[C@@H]4C3)nn2)c(C)cc1F
pIC50: 6.62
//
compound: Cc1ccc(C)c(-c2cc(C(F)(F)F)c(N[C@H]3C[C@@H]4CN(C[C@@H]5COCCO5)C[C@@H]4C3)nn2)c1
pIC50: 6.74

* * *

# target_of_assay: Human M4 (Homo sapiens, UniProt P08173)
# Construct: Human or rat M4 cDNA, along with the chimeric G protein Gqi5, were transfected into Chinese hamster ovary (CHO-K1) cells; expressed in transfected cells; host or cells: CHO-K1 (Chinese hamster ovary, ATCC), stably co-expressing Gqi5
# Sequence (P08173 whole entry): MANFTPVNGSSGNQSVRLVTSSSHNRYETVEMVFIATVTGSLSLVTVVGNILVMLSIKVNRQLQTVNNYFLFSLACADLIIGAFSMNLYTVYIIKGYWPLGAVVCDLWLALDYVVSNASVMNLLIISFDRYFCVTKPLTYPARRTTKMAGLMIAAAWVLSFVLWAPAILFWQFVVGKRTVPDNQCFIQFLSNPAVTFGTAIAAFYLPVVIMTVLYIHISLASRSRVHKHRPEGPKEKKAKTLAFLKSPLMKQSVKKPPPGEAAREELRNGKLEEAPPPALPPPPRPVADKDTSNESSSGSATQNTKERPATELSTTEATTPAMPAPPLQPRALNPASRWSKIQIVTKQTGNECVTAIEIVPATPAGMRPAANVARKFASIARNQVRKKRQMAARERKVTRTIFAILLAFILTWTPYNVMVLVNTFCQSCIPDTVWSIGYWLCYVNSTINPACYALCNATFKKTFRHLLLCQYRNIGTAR
# experiment_description: mAChR M4 cell-based functional assay (calcium flux, decrease of EC80 acetylcholine response)
# experimental_parameters: % ACh maximum at 30 μM; read-out: Human M4 Emin
Reported remaining activity at 30 µM values for the following molecules.

molecule: [2H]C([2H])([2H])OC([2H])([2H])c1ccc(F)cc1-c1cc(C(F)(F)F)c(N[C@H]2C[C@@H]3CN(CC4CCOCC4)C[C@@H]3C2)nn1
target_of_assay: Human M4 (Homo sapiens, UniProt P08173)
remaining activity at 30 µM / %: 4
--
molecule: [2H]C([2H])(C1CCOCC1)N1C[C@H]2C[C@H](Nc3nnc(-c4cc(F)ccc4C)cc3C(F)(F)F)C[C@H]2C1
target_of_assay: Human M4 (Homo sapiens, UniProt P08173)
remaining activity at 30 µM / %: 3
--
molecule: Cc1ccc(C)c(-c2cc(C(F)(F)F)c(N[C@H]3C[C@@H]4CN(CC5CCOCC5)C[C@@H]4C3)nn2)c1
target_of_assay: Human M4 (Homo sapiens, UniProt P08173)
remaining activity at 30 µM / %: 2
--
molecule: Cc1ccc(F)cc1-c1cc(C(F)(F)F)c(N[C@H]2C[C@@H]3CN(CC4(F)CCOCC4)C[C@@H]3C2)nn1
target_of_assay: Human M4 (Homo sapiens, UniProt P08173)
remaining activity at 30 µM / %: 3
--
molecule: Cc1ccc(-c2cc(C(F)(F)F)c(N[C@H]3C[C@@H]4CN(CC5CCOCC5)C[C@@H]4C3)nn2)c(F)c1
target_of_assay: Human M4 (Homo sapiens, UniProt P08173)
remaining activity at 30 µM / %: 3
--
molecule: Cc1nn(C)c(C)c1-c1cc(C(F)(F)F)c(N[C@H]2C[C@@H]3CN(CC4CCOCC4)C[C@@H]3C2)nn1
target_of_assay: Human M4 (Homo sapiens, UniProt P08173)
remaining activity at 30 µM / %: 4
--
molecule: Cn1cc2cc(-c3cc(C(F)(F)F)c(N[C@H]4C[C@@H]5CN(C[C@@H]6CCOC6)C[C@@H]5C4)nn3)ccc2n1
target_of_assay: Human M4 (Homo sapiens, UniProt P08173)
remaining activity at 30 µM / %: 6
--
molecule: CC(C)c1ccc(F)c(-c2cc(C(F)(F)F)c(N[C@H]3C[C@@H]4CN(CC5CCOCC5)C[C@@H]4C3)nn2)c1
target_of_assay: Human M4 (Homo sapiens, UniProt P08173)
remaining activity at 30 µM / %: 3
--
molecule: Cc1ccc(F)cc1-c1cc(C#N)c(N[C@H]2C[C@@H]3CN(C[C@@H]4CC5CCC4O5)C[C@@H]3C2)nn1 (some centres unmarked)
target_of_assay: Human M4 (Homo sapiens, UniProt P08173)
remaining activity at 30 µM / %: 5
--
molecule: CCOc1ccc(-c2cc(C(F)(F)F)c(N[C@H]3C[C@@H]4CN(CC5CCOCC5)C[C@@H]4C3)nn2)c(F)c1F
target_of_assay: Human M4 (Homo sapiens, UniProt P08173)
remaining activity at 30 µM / %: 3
--
molecule: N#Cc1cccc(-c2cc(C(F)(F)F)c(N[C@H]3C[C@@H]4CN(CC5CCOCC5)C[C@@H]4C3)nn2)c1F
target_of_assay: Human M4 (Homo sapiens, UniProt P08173)
remaining activity at 30 µM / %: 4
--
molecule: [2H]C([2H])([2H])N(c1cc(C(F)(F)F)c(-c2cc(F)ccc2C)nn1)[C@H]1C[C@@H]2CN(CC3CCOCC3)C[C@@H]2C1
target_of_assay: Human M4 (Homo sapiens, UniProt P08173)
remaining activity at 30 µM / %: 2
--
molecule: Cn1cc2cc(-c3cnc(N[C@H]4C[C@@H]5CN(CCC(C)(C)C)C[C@@H]5C4)nc3)ccc2n1
target_of_assay: Human M4 (Homo sapiens, UniProt P08173)
remaining activity at 30 µM / %: 4
--
molecule: Cn1cc2cc(-c3cc(C#N)c(N[C@H]4C[C@@H]5CN(C[C@H]6COCCO6)C[C@@H]5C4)nn3)ccc2n1
target_of_assay: Human M4 (Homo sapiens, UniProt P08173)
remaining activity at 30 µM / %: 12

* * *

# target_of_assay: Human M4 (Homo sapiens)
# Construct: Human or rat M4 cDNA, along with the chimeric G protein Gqi5, were transfected into Chinese hamster ovary (CHO-K1) cells
# experiment_description: mAChR M4 cell-based functional assay (calcium flux, decrease of EC80 acetylcholine response)
# experimental_parameters: M4/Gqi5/CHO-K1 cells; decrease of response to EC80 acetylcholine
value_kind: IC50 (nM)

smiles_text: Cc1ccc(F)cc1-c1cc(C#N)c(N[C@H]2C[C@@H]3CN(C[C@@H]4COCCO4)C[C@@H]3C2)nn1
value_kind: IC50
test_result: 30.5

smiles_text: Fc1ccc(F)c(-c2cc(C(F)(F)F)c(N[C@H]3C[C@@H]4CN(C[C@H]5COCCO5)C[C@@H]4C3)nn2)c1
value_kind: IC50
test_result: 142

smiles_text: COc1ccc(F)cc1-c1cc(C(F)(F)F)c(N[C@H]2C[C@@H]3CN(CC4CCOCC4)C[C@@H]3C2)nn1
value_kind: IC50
test_result: 94.3

* * *

# target_of_assay: Human M4 (Homo sapiens, UniProt P08173)
# Construct: Human or rat M4 cDNA, along with the chimeric G protein Gqi5, were transfected into Chinese hamster ovary (CHO-K1) cells
# experiment_description: mAChR M4 cell-based functional assay (calcium flux, decrease of EC80 acetylcholine response)
# experimental_parameters: M4/Gqi5/CHO-K1 cells; decrease of response to EC80 acetylcholine
pIC50: −log10 of the molar value.

compound: Cn1cc2cc(-c3cc(C#N)c(N[C@H]4C[C@@H]5CN(C[C@@H]6CCOC6)C[C@@H]5C4)nn3)ccc2n1
pIC50: 7.06

compound: Cn1cc2cc(-c3cc(C(F)(F)F)c(N[C@H]4C[C@@H]5CN(C[C@H]6CC7CCC6O7)C[C@@H]5C4)nn3)ccc2n1 (some centres unmarked)
pIC50: 7.13

compound: Cc1ccc(F)cc1-c1cc(C(F)(F)F)c(N[C@H]2C[C@@H]3CN(C[C@H]4CCOC4)C[C@@H]3C2)nn1
pIC50: 6.89

compound: [2H]C([2H])(C1CCOCC1)N1C[C@H]2C[C@H](Nc3cc(C(F)(F)F)c(-c4cc(F)ccc4Cl)nn3)C[C@H]2C1
pIC50: 8.64

compound: Cn1cc2cc(-c3cc(C#N)c(N[C@H]4C[C@@H]5CN(C[C@H]6COCCO6)C[C@@H]5C4)nn3)ccc2n1
pIC50: 8.00

compound: [2H]C([2H])(C1CCOCC1)N1C[C@H]2C[C@H](Nc3nnc(-c4ccc5c(c4)OCC5)cc3C(F)(F)F)C[C@H]2C1
pIC50: 7.26

compound: Cc1ccc(F)cc1-c1cc(C(F)(F)F)c(N[C@H]2C[C@@H]3CN(Cc4ccccn4)C[C@@H]3C2)nn1
pIC50: 7.02

compound: Cn1cc2cc(-c3cc(C#N)c(N[C@H]4C[C@@H]5CN(CC6CCCOC6)C[C@@H]5C4)nn3)ccc2n1 (single isomer, unassigned) [Example 158]
pIC50: 7.80

compound: Cc1ccncc1-c1cc(C(F)(F)F)c(N[C@H]2C[C@@H]3CN(CC4CCOCC4)C[C@@H]3C2)nn1
pIC50: 6.88

compound: [2H]C([2H])([2H])N(c1cc(C(F)(F)F)c(-c2cc(F)ccc2C)nn1)[C@H]1C[C@@H]2CN(CC3CCOCC3)C[C@@H]2C1
pIC50: 7.22

compound: CC(C)(C)CCN1C[C@H]2C[C@H](Nc3ncc(-c4cc(F)ccc4Cl)cn3)C[C@H]2C1
pIC50: 5.48

compound: C[C@H]1CCCN(c2cc(C(F)(F)F)c(N[C@H]3C[C@@H]4CN(CC5CCOCC5)C[C@@H]4C3)nn2)C1
pIC50: 7.84

compound: [2H]C([2H])(C1CCOCC1)N1C[C@H]2C[C@H](Nc3nnc(-c4ccccc4)cc3C(F)(F)F)C[C@H]2C1
pIC50: 7.39

compound: [2H]C([2H])(C1CCOCC1)N1C[C@H]2C[C@H](Nc3nnc(-c4cc(F)ccc4F)cc3C(F)(F)F)C[C@H]2C1
pIC50: 6.84

compound: CCOc1ccc(-c2cc(C(F)(F)F)c(N[C@H]3C[C@@H]4CN(CC5CCOCC5)C[C@@H]4C3)nn2)c(C)c1
pIC50: 7.13

compound: F[C@H]1CCN(c2cc(C(F)(F)F)c(N[C@H]3C[C@@H]4CN(CC5CCOCC5)C[C@@H]4C3)nn2)C1
pIC50: 8.14

compound: Fc1cc(F)c(F)c(-c2cc(C(F)(F)F)c(N[C@H]3C[C@@H]4CN(CC5CCOCC5)C[C@@H]4C3)nn2)c1
pIC50: 6.54
